target: Gamma-aminobutyric acid receptor subunit alpha-3 (Homo sapiens)
Sequence (P34903 whole entry): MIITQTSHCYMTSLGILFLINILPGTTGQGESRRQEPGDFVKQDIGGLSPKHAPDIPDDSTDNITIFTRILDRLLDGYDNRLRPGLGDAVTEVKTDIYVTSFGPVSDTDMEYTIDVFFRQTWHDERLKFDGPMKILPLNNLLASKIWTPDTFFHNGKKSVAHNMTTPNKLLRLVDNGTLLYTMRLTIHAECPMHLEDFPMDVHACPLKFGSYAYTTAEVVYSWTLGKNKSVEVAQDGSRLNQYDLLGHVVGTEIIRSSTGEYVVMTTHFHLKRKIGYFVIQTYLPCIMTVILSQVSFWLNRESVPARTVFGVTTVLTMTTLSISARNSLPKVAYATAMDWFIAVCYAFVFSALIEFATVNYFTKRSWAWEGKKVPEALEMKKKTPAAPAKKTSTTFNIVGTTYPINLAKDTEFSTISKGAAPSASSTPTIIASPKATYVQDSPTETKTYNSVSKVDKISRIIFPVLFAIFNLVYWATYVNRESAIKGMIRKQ
Assignment: determine reported pKi for the given compounds.
Numbers only, as −log10 of the molar value.

Exam item: Record CP(=O)(O)CCCN [CGP35024] : what is its pKi with Gamma-aminobutyric acid receptor subunit alpha-3 (Homo sapiens)?
Marked response: 6.12

Further cases:
Exam item: Record NCCC[PH](=O)O [(3-aminopropyl)phosphinic acid] : what is its pKi with Gamma-aminobutyric acid receptor subunit alpha-3 (Homo sapiens)?
Marked response: 5.61

Attribution: BindingDB's records for PubMed 9226416
